Values compiled from paper PMC4036204.

Target: T1, Mos1 transposase WT (UniProt Q7JQ07 1-345)
T1 sequence: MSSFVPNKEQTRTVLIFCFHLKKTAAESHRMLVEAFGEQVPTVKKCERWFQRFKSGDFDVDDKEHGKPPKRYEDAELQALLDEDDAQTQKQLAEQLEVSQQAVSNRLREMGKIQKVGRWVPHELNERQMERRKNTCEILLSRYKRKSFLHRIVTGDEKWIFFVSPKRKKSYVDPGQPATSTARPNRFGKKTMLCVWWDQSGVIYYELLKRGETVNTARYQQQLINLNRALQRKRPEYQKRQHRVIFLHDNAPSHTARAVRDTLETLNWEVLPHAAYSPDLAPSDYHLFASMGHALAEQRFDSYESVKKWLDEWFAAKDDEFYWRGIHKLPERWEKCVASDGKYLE
Assay: fluorescence polarization; FP: 50 mM HEPES pH 7.0, 150 mM NaCl, 10 nM probe, temperature not stated; EMSA: 50 mM HEPES-KOH pH 7.8, 50 mM NaCl, 0.2 ug poly(dI:dC), 0.2 ug/ul BSA, room temperature 15 min
Conditions: protein: recombinant; tags: His6-SUMO cleaved by Ulp1; label: 5' rhodamine; single strand
MEASUREMENT KIND: Kd (nM)

> print(dat)
                                     binder  unit.label  observed
1  AACCGCAATTACTTTTGCACCAACC (ssDNA, 5' C6-amino linker) [25-nt TIR ssDNA]          nM        33
